Where do these numbers come from? They come from patent US4713457A.

- Tested on: unanesthetized spontaneously hypertensive rats
- assay: Heart rate determined simultaneously with blood pressure (sphygmometer connected to the pulse output)
- Assay type: in vivo, rat
- condition-parameters: 4 hrs after administration; 10 mg/kg oral
Counter-ions that a name gives are not always drawn.
What Changes in Heart Rate was measured for each of the following?

q: For unanesthetized spontaneously hypertensive rats, give the measured Changes in Heart Rate of the entry CN1C[C@H](CN2C(=O)CCC2=O)C[C@@H]2c3cccc4[nH]cc(c34)C[C@H]21
a: -32 Δ/min.

q: Return reported Changes in Heart Rate for target or system unanesthetized spontaneously hypertensive rats, item CN1C[C@H](Cn2cccn2)C[C@@H]2c3cccc4[nH]cc(c34)C[C@H]21 .
a: -52 Δ/min.

q: Write down the reported Changes in Heart Rate (system: unanesthetized spontaneously hypertensive rats) of CCCc1nccn1C[C@@H]1C[C@@H]2c3cccc4[nH]cc(c34)C[C@H]2N(C)C1
a: -8 Δ/min.

q: Name the value of Changes in Heart Rate reported for Cc1nccn1C[C@@H]1C[C@@H]2c3cccc4[nH]cc(c34)C[C@H]2N(C)C1 when tested on unanesthetized spontaneously hypertensive rats.
a: -36 Δ/min.

q: Provide the reported Changes in Heart Rate (system: unanesthetized spontaneously hypertensive rats) for CCOC(=O)c1ncn(C[C@@H]2C[C@@H]3c4cccc5[nH]cc(c45)C[C@H]3N(C)C2)c1C [Example 15B]
a: -8 Δ/min.

q: Provide Changes in Heart Rate, system unanesthetized spontaneously hypertensive rats, entry NNc1nncc2ccccc12 [Hydralazine Hydrochloride, reference compound]
a: 75 Δ/min.

q: Enter recorded Changes in Heart Rate with unanesthetized spontaneously hypertensive rats for CN1C[C@H](Cn2ccnc2-c2ccccc2)C[C@@H]2c3cccc4[nH]cc(c34)C[C@H]21 here.
a: -49 Δ/min.

q: // output Changes in Heart Rate; input CC(C)c1nccn1C[C@@H]1C[C@@H]2c3cccc4[nH]cc(c34)C[C@H]2N(C)C1 ; system unanesthetized spontaneously hypertensive rats
a: -24 Δ/min.

q: Under unanesthetized spontaneously hypertensive rats, report Changes in Heart Rate for CN1C[C@H](CN2CCOC2=O)C[C@@H]2c3cccc4[nH]cc(c34)C[C@H]21
a: -58 Δ/min.

q: State Changes in Heart Rate (unanesthetized spontaneously hypertensive rats) of CN1C[C@H](Cn2ccnc2)C[C@@H]2c3cccc4[nH]cc(c34)C[C@H]21 .
a: -25 Δ/min.

q: Specify the recorded Changes in Heart Rate for CCc1nccn1C[C@@H]1C[C@@H]2c3cccc4[nH]cc(c34)C[C@H]2N(C)C1 , system: unanesthetized spontaneously hypertensive rats.
a: -6 Δ/min.

q: Send back unanesthetized spontaneously hypertensive rats Changes in Heart Rate of CN1C[C@H](Cn2cncn2)C[C@@H]2c3cccc4[nH]cc(c34)C[C@H]21 only.
a: -33 Δ/min.

q: Send back unanesthetized spontaneously hypertensive rats Changes in Heart Rate of CN1CC(=O)N(C[C@@H]2C[C@@H]3c4cccc5[nH]cc(c45)C[C@H]3N(C)C2)C1=O only.
a: 2 Δ/min.

###

- System: unanesthetized spontaneously hypertensive rats
- assay: Anti-hypertensive activity, systolic blood pressure, tail cuff method
- Format: in vivo, rat
- condition-parameters: 6 hrs after administration; 10 mg/kg oral
Counter-ions that a name gives are not always drawn.
parameter-measured: Changes in Systolic Blood Pressure

q: Report measured Changes in Systolic Blood Pressure; entry is CN1C[C@H](Cn2cccn2)C[C@@H]2c3cccc4[nH]cc(c34)C[C@H]21 [Example 4, 1-(6-Methylergolin-8β-ylmethyl)pyrazole]
a: -49 Δ mmHg

q: Let me know recorded Changes in Systolic Blood Pressure for CN1CC(=O)N(C[C@@H]2C[C@@H]3c4cccc5[nH]cc(c45)C[C@H]3N(C)C2)C1=O [Example 3] , thanks.
a: -27 Δ mmHg

q: Provide one value: measured Changes in Systolic Blood Pressure of Cc1nccn1C[C@@H]1C[C@@H]2c3cccc4[nH]cc(c34)C[C@H]2N(C)C1 [Example 9]
a: -55 Δ mmHg

q: Answer with the recorded Changes in Systolic Blood Pressure for the compound listed here: CCOC(=O)c1ncn(C[C@@H]2C[C@@H]3c4cccc5[nH]cc(c45)C[C@H]3N(C)C2)c1C [Example 15B]
a: -59 Δ mmHg

q: Give the reported value of Changes in Systolic Blood Pressure for this record: CN1C[C@H](Cn2cncn2)C[C@@H]2c3cccc4[nH]cc(c34)C[C@H]21 [Example 6]
a: -65 Δ mmHg

q: Recall and state the measured Changes in Systolic Blood Pressure for CCc1nccn1C[C@@H]1C[C@@H]2c3cccc4[nH]cc(c34)C[C@H]2N(C)C1 [Example 10] .
a: -66 Δ mmHg

q: Input NNc1nncc2ccccc12 [Hydralazine Hydrochloride, reference compound] , output reported Changes in Systolic Blood Pressure.
a: -41 Δ mmHg

q: Please supply the value of reported Changes in Systolic Blood Pressure for the item CC(C)c1nccn1C[C@@H]1C[C@@H]2c3cccc4[nH]cc(c34)C[C@H]2N(C)C1 [Example 11]
a: -58 Δ mmHg

q: Return Changes in Systolic Blood Pressure for the following compound: CCCc1nccn1C[C@@H]1C[C@@H]2c3cccc4[nH]cc(c34)C[C@H]2N(C)C1 [Example 12]
a: -59 Δ mmHg

q: Answer with reported Changes in Systolic Blood Pressure of CN1C[C@H](CN2C(=O)CCC2=O)C[C@@H]2c3cccc4[nH]cc(c34)C[C@H]21 [Example 8]
a: -66 Δ mmHg

q: Name the recorded Changes in Systolic Blood Pressure of the item CN1C[C@H](Cn2ccnc2-c2ccccc2)C[C@@H]2c3cccc4[nH]cc(c34)C[C@H]21 [Example 13] in your answer.
a: -48 Δ mmHg

q: Return Changes in Systolic Blood Pressure (reported value) for this compound: CN1C[C@H](CN2CCOC2=O)C[C@@H]2c3cccc4[nH]cc(c34)C[C@H]21 [Example 2]
a: -52 Δ mmHg

q: Please supply the value of reported Changes in Systolic Blood Pressure for the item CN1C[C@H](Cn2ccnc2)C[C@@H]2c3cccc4[nH]cc(c34)C[C@H]21 [Example 1, 1-(6-Methylergolin-8β-ylmethyl)imidazole]
a: -60 Δ mmHg

###

Exercise: for every item that follows, state its recorded Changes in Heart Rate.
- Test system: unanesthetized spontaneously hypertensive rats
- assay: Heart rate determined simultaneously with blood pressure (sphygmometer connected to the pulse output)
- Assay type: in vivo, rat
- condition-parameters: 1 hr after administration; 10 mg/kg oral

q: Consider the molecule CN1C[C@H](Cn2cncn2)C[C@@H]2c3cccc4[nH]cc(c34)C[C@H]21 [Example 6] and give its recorded Changes in Heart Rate.
a: -8 Δ/min.

q: Could you please provide reported Changes in Heart Rate for CN1C[C@H](Cn2cccn2)C[C@@H]2c3cccc4[nH]cc(c34)C[C@H]21 [Example 4, 1-(6-Methylergolin-8β-ylmethyl)pyrazole] ? Thanks!
a: -16 Δ/min.

q: For the molecule CC(C)c1nccn1C[C@@H]1C[C@@H]2c3cccc4[nH]cc(c34)C[C@H]2N(C)C1 [Example 11] , report Changes in Heart Rate.
a: -37 Δ/min.

q: // Input: CN1C[C@H](CN2CCOC2=O)C[C@@H]2c3cccc4[nH]cc(c34)C[C@H]21 [Example 2] . Output its Changes in Heart Rate only.
a: -39 Δ/min.

q: Give the value of Changes in Heart Rate reported for the following: CCCc1nccn1C[C@@H]1C[C@@H]2c3cccc4[nH]cc(c34)C[C@H]2N(C)C1 [Example 12]
a: -25 Δ/min.

q: Name the recorded Changes in Heart Rate of the molecule listed here: CCOC(=O)c1ncn(C[C@@H]2C[C@@H]3c4cccc5[nH]cc(c45)C[C@H]3N(C)C2)c1C [Example 15B]
a: -4 Δ/min.

q: Give me measured Changes in Heart Rate, please, for this molecule: CN1C[C@H](CN2C(=O)CCC2=O)C[C@@H]2c3cccc4[nH]cc(c34)C[C@H]21 [Example 8]
a: 6 Δ/min.
